From: patent EP0371438B1

biological target: UniProt P12527; assay: ARBL whole cell 5-lipoxygenase assay (LTB4 formation, RIA); conditions: IC50 for LTB4 inhibition; RBL-1 cells, calcium ionophore A23187
Sequence (P12527 whole entry): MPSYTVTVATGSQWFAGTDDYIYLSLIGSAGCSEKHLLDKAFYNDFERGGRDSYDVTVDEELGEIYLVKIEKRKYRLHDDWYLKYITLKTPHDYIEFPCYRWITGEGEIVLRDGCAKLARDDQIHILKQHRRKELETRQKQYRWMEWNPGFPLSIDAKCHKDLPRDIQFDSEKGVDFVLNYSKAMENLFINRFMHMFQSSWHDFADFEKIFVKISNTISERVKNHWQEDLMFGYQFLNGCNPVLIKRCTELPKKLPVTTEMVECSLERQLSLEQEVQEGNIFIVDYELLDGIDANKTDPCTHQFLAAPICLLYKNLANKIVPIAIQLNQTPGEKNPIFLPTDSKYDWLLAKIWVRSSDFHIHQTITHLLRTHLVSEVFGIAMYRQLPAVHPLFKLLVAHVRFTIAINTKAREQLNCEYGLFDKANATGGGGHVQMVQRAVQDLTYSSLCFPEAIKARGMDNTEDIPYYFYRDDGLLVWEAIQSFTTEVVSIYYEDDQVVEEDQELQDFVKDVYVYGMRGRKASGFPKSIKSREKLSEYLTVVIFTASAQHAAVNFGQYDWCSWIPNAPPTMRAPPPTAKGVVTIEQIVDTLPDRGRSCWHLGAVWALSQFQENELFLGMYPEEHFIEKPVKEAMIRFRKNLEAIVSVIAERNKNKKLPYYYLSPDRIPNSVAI
Below, each of the compounds is paired with its reported IC50 value.
Measurement Kind: IC50 (µM)

INSERT INTO results (compound, unit_abbrev, readout_value) VALUES
  ('CC(C)(C)c1cc(-c2n[nH]c(=S)o2)cc(C(C)(C)C)c1O [Example 8]', 'µM', 10),
  ('CC(C)(C)c1cc(-c2nnc(S)s2)cc(C(C)(C)C)c1O [Example 4]', 'µM', 5.7),
  ('CC(C)(C)c1cc(-c2n[nH]c(=O)o2)cc(C(C)(C)C)c1O [Example 7]', 'µM', 1.4),
  ('CC(C)(C)c1cc(-c2nnc(N)s2)cc(C(C)(C)C)c1O [Example 10]', 'µM', 1.4),
  ('CC(C)(C)c1cc(-c2n[nH]c(=O)[nH]2)cc(C(C)(C)C)c1O [Example 15]', 'µM', 4.5);
